Test system: NOMO1
Assay: cell viability relative to DMSO control; higher = less cytotoxic
Settings: RPMI 5 mM glucose + 10% dialyzed FBS; 48 h; 0.0632 µM
quantity measured: cell viability (%)
Please respond with the number in % and leave the unit unwritten.

* CC(C)NCC(O)COc1ccc(CCOCC2CC2)cc1 (stereo not drawn) | 119

Ask: Fill in the blank: the reported cell viability of O=C1CCc2ccc(OCCCCN3CCN(c4cccc(Cl)c4Cl)CC3)cc2N1 is ____.
Result: 96.1

Ask: Can you check O=C(CCCCCCC(=O)Nc1ccccc1)NO next?
Result: 119

Ask: Same again, this time with Cc1ccc(-c2ncn(-c3ccc(Nc4nccc(-c5cccc(N6CCOCC6)c5)n4)cc3)n2)cn1
Result: 94.9

Ask: What do you have for Cc1cc(O)c2c(c1)C(=O)c1cc(O)cc(O)c1C2=O ?
Result: 110

---

Test system: NOMO1
Experiment: cell viability relative to DMSO control; higher = less cytotoxic
Details: HPLM + 10% dialyzed FBS; 48 h; 5.12 µM
quantity measured: cell viability (%)
Report the value in % with no unit label.

- Cc1cc(Cl)ccc1OCCCC(=O)NO: 103
- N\C1=N\C2=C(N=C[N]2COC(CO)CO)C(=O)N1: 110

Next item in the queue.
Ask: Quick one: cell viability for Cc1ncc([N+](=O)[O-])n1CCO ?
Result: 116

---

Test system: SEM cells
Assay: cell viability relative to DMSO control; higher = less cytotoxic
Settings: HPLM + 10% dialyzed FBS; 48 h; 0.00702 µM
quantity measured: cell viability (%)
Number in %, nothing else.

Before answering, review these 2 worked examples.
- CC(=O)OC\C1=C(\[N@]2[C@@H](SC1)[C@H](N)C2=O)C(O)=O: 119
- OCCCNc1cc(-c2ccnc(Nc3cccc(Cl)c3)n2)ccn1: 110

Ask: Need cell viability of COc1ccc2c(c1OC)CN1CCc3cc4c(cc3C1C2)OCO4 (stereo not drawn) , thanks.
Result: 86.5

---

System: SEM cells
Experiment: cell viability relative to DMSO control; higher = less cytotoxic
Conditions: HPLM + 10% dialyzed FBS; 48 h; 46.1 µM
Param label: returns Fulfilled when cell viability < 90%, returns Not fulfilled otherwise, including exact equality.

Some solved entries appear below for comparison.
* NC(=O)Nc1cc(-c2ccc(CN3CCOCC3)cc2)sc1C(N)=O | Fulfilled
* O=C(CCc1ccc(O)cc1)c1c(O)cc(O)cc1O[C@@H]1O[C@H](CO)[C@@H](O)[C@H](O)[C@H]1O | Fulfilled

Ask: cell viability strictly < 90% for this compound? CCN(C)C(=O)Oc1cccc([C@H](C)N(C)C)c1
Result: Not fulfilled

Ask: Record: Oc1cc(O)cc(/C=C/c2ccc(O)c(O)c2)c1
Result: Fulfilled

Ask: Also need Nc1nc(OCc2ccccc2)c2nc[nH]c2n1 , thanks.
Result: Not fulfilled

Ask: Here is the next compound: O=C1CCc2ccc(OCCCCN3CCN(c4cccc(Cl)c4Cl)CC3)cc2N1
Result: Not fulfilled

Ask: Same thing, different compound: Cc1cc(O)c2c(c1)C(=O)c1cc(O)cc(O)c1C2=O
Result: Fulfilled

Ask: Try CC(=O)[C@H]1CC[C@H]2[C@@H]3CCC4=CC(=O)CC[C@]4(C)[C@H]3CC[C@]12C next.
Result: Not fulfilled

Ask: Please answer likewise for O=C1NC(=O)/C(=C/c2cccc(C(F)(F)F)c2)S1
Result: Fulfilled

---

Tested on: P12-Ichikawa
Test: cell viability relative to DMSO control; higher = less cytotoxic
Conditions: RPMI 5 mM glucose + 10% dialyzed FBS; 48 h; 5.12 µM
In this section we review reported cell viability values for a set of molecules.
Express your answer in %, writing the number without its unit.

Consider the worked cases shown below.
• COc1cc([C@@H]2c3cc4c(cc3[C@@H](O[C@@H]3O[C@@H]5CO[C@@H](c6cccs6)O[C@H]5[C@H](O)[C@H]3O)[C@H]3COC(=O)[C@H]23)OCO4)cc(OC)c1O = 59
• O=C(CCCCCCC(=O)Nc1ccccc1)NO = 19.7
• O=C(CCc1ccc(O)cc1)c1c(O)cc(O)cc1O[C@@H]1O[C@H](CO)[C@@H](O)[C@H](O)[C@H]1O = 83.2
• CO[C@@H]1C(N(C)C(=O)c2ccccc2)C[C@H]2O[C@]1(C)n1c3ccccc3c3c4c(c5c6ccccc6n2c5c31)C(=O)NC4=O (stereo partly specified) = 87.8
• COc1cc2ncnc(Nc3cccc(Br)c3)c2cc1OC = 109
• CC(C)[C@H](CO)Nc1nc(Nc2cccc(Cl)c2)c2ncn(C(C)C)c2n1 = 58.5

Ask: Give the measured cell viability of CC(C)NCC(O)c1ccc(NS(C)(=O)=O)cc1 (stereo unspecified) .
Result: 91

Ask: Let us now turn to NC(=O)Nc1cc(-c2ccc(CN3CCOCC3)cc2)sc1C(N)=O
Result: 19

Ask: Same question, CNCC(O)C(O)C(O)C(O)CO.O=C(O)c1ccc(-c2cc3cccnc3c(-c3ccc4nonc4c3)n2)cc1 this time
Result: 113

Ask: Again, but for NC(=O)c1cccc(N)c1
Result: 115

Ask: Here is the next molecule: COc1cc(N[S+](=O)([O-])c2ccc(N)cc2)nc(OC)n1
Result: 104

---

System: NOMO1
Experiment: cell viability relative to DMSO control; higher = less cytotoxic
Conditions: RPMI 5 mM glucose + 10% FBS; 48 h; 1.71 µM
In this section, each of the compounds is paired with its reported cell viability.
Entry rule: numbers only, all in %.

Known results for compounds:
* CN(C)c1ccc2cc(C(=O)N[C@@H](CCCNC(=N)CCl)C(=O)NCc3ccccc3)ccc2c1 | 98.6
* COc1cc(N[S+](=O)([O-])c2ccc(N)cc2)nc(OC)n1 | 103

Ask: Please look up its cell viability: COC(=O)[C@@H](N)CCCNC(=N)N[N+](=O)[O-]
Result: 88.1

---

Test system: P12-Ichikawa
Assay: cell viability relative to DMSO control; higher = less cytotoxic
Conditions: HPLM + 10% dialyzed FBS; 48 h; 0.0211 µM
compounds and their reported cell viability
Express the result in % but write the number alone.

* CC(=O)O[C@@]12CO[C@@H]1C[C@H](O)[C@]3(C)[C@@H]2[C@H](OC(=O)C4=CC=CC=C4)[C@]5(O)C[C@H](OC(=O)C(O)[C@@H](NC(=O)OC(C)(C)C)C6=CC=CC=C6)C(=C(/[C@@H](O)C3=O)C5(C)C)/C (some centres undefined) | 38
* NC(=O)Nc1cc(-c2ccc(CN3CCOCC3)cc2)sc1C(N)=O | 117
* C[S+]([O-])c1ccc(-c2nc(-c3ccc(F)cc3)c(-c3ccncc3)[nH]2)cc1 (centres undefined) | 111

Ask: Recorded cell viability of CC(C)C[C@H](NC(=O)[C@H](Cc1ccccc1)NC(=O)c1cnccn1)B(O)O , please.
Result: 106

---

Test system: P12-Ichikawa
Test: cell viability relative to DMSO control; higher = less cytotoxic
Conditions: HPLM + 10% dialyzed FBS; 48 h; 0.00234 µM
quantity measured: cell viability
The answer should read as a number with its unit following.

* CC(C)(C)NC(=O)[C@@H]1CN(Cc2cccnc2)CCN1C[C@@H](O)C[C@@H](Cc1ccccc1)C(=O)N[C@H]1c2ccccc2C[C@H]1O.O=S(=O)(O)O | 114%

Ask: I am curious: what cell viability value has been reported for COC[C@H]1OC(=O)C2=COC3=C2[C@@]1(C)\C4=C(\[C@@H]5CC[C@H](O)[C@@]5(C)C[C@H]4OC(C)=O)C3=O ?
Result: 120%

Ask: What would you report for O=C1NC(=O)/C(=C/c2cccc(C(F)(F)F)c2)S1 ?
Result: 110%

Ask: Entry COC1=CC2=C(C=C1OC)[C@H]3[C@@H](CO2)OC4=C(C=CC5=C4\C=C/C(C)(C)O5)C3=O please
Result: 103%

Ask: Entry Oc1cc(O)cc(/C=C/c2ccc(O)c(O)c2)c1 please
Result: 103%

Ask: Another compound to check: Cc1cc(Cl)ccc1OCCCC(=O)NO
Result: 105%

Ask: Likewise for CN[C@@H]1C[C@H]2O[C@@](C)([C@@H]1OC)n1c3ccccc3c3c4c(c5c6ccccc6n2c5c31)C(=O)N[C@H]4O ?
Result: 86.5%

Ask: Param item: O=c1[nH]cnc2c1ncn2[C@H]1CC[C@@H](CO)O1
Result: 101%

Ask: Now consider CCOC(=O)[C@H](CCc1ccccc1)N[C@@H](C)C(=O)N1[C@H](C(=O)O)C[C@@H]2CCC[C@@H]21 and answer again.
Result: 124%

Ask: Another compound: NC\1=N\C(=O)N(\C=C1)[C@H]\2[C@H](O)[C@H](O)C(=C2F)\CO
Result: 106%

Ask: Ok, now OC(COC1=C2C(=O)\C=C(/OC2=CC=C1)C([O-])=O)COC3=C4C(=O)\C=C(/OC4=CC=C3)C([O-])=O
Result: 80.9%

Ask: How about O=C(CCc1ccc(O)cc1)c1c(O)cc(O)cc1O[C@@H]1O[C@H](CO)[C@@H](O)[C@H](O)[C@H]1O ?
Result: 96.6%

Ask: For COC1(C[S+]([O-])c2ccccc2)CCN(CCc2c[nH]c3ccc(F)cc23)CC1 (stereo not given) then?
Result: 105%

Ask: Then this compound: CC(C)(C)c1cc(C(=O)O)c(NC(=O)Nc2ccc3[nH]ncc3c2)s1
Result: 102%

Ask: Now the same for CN(C)C[C@@H]1CC[N]2C=C(C3=C2C=CC=C3)C/4=C(/C(=O)NC4=O)C5=C[N](CCO1)C6=C5C=CC=C6
Result: 98.3%
